- System: GST-Bcl-2
- measurement-description: TR-FRET binding assay, Bcl-2
- test-settings: TR-FRET Ki values
measurement-kind: Binding selectivity ratio (Bcl-XL Ki/Bcl-2 Ki)
Write the number on its own, no unit after it.

CC1(C)CCC(CN2CCN(c3ccc(C(=O)NS(=O)(=O)c4ccc(NCC5(F)CCOCC5)c([N+](=O)[O-])c4)c(Oc4cccc5[nH]ncc45)c3)CC2)=C(c2ccc(Cl)cc2)C1    1748.5

Let us move to another entry and its Binding selectivity ratio (Bcl-XL Ki/Bcl-2 Ki).
Query: Item under review: `CC1(C)CCC(CN2CCN(c3ccc(C(=O)NS(=O)(=O)c4ccc(NCCN5CCNC(=O)C5)c([N+](=O)[O-])c4)c(Oc4ccc5[nH]ccc5c4)c3)CC2)=C(c2ccc(Cl)cc2)C1` . Reported Binding selectivity ratio (Bcl-XL Ki/Bcl-2 Ki)?
Result: 2396.1

* * *

- Tested on: GST-Bcl-2
- measurement-description: TR-FRET binding assay, Bcl-2
- test-settings: TR-FRET Ki values
Items are presented alongside their recorded Binding selectivity ratio (Bcl-XL Ki/Bcl-2 Ki).
Write the number on its own, no unit after it.

Here are 4 molecules together with their reported answers.
CC1(C)CCC(CN2CCN(c3ccc(C(=O)NS(=O)(=O)c4cnc(OCC5(F)CCOCC5)c(C#N)c4)c(Oc4ccc5[nH]ccc5c4)c3)CC2)=C(c2ccc(Cl)cc2)C1    2096.5
O=C(NS(=O)(=O)c1ccc(NCC2CCOCC2)c(S(=O)(=O)C(F)(F)F)c1)c1ccc(N2CCN(Cc3ccccc3-c3ccc(Cl)cc3)CC2)cc1Oc1ccc2[nH]ccc2c1    162.4
CN(C)CCCNc1ccc(S(=O)(=O)NC(=O)c2ccc(N3CCN(Cc4ccccc4-c4ccc(Cl)cc4)CC3)cc2Oc2ccc3ccccc3c2)cc1[N+](=O)[O-]    7.1
CC1(C)CCC(CN2CCN(c3ccc(C(=O)NS(=O)(=O)c4cnc(OC[C@@H]5CCN(CC(F)F)C5)c(Cl)c4)c(Oc4cccc5[nH]ncc45)c3)CC2)=C(c2ccc(Cl)cc2)C1    484.2

Let us move to another entry and its Binding selectivity ratio (Bcl-XL Ki/Bcl-2 Ki).
Query: What is its Binding selectivity ratio (Bcl-XL Ki/Bcl-2 Ki) for GST-Bcl-2? Entry: `CN1CCC(O)(CNc2ccc(S(=O)(=O)NC(=O)c3ccc(N4CCN(CC5=C(c6ccc(Cl)cc6)CC(C)(C)CC5)CC4)cc3Oc3cccc4[nH]ccc34)cc2[N+](=O)[O-])CC1`
Result: 1069.2

* * *

- Tested on: GST-Bcl-2
- measurement-description: TR-FRET binding assay, Bcl-2
- test-settings: TR-FRET Ki values
measurement-kind: Binding selectivity ratio (Bcl-XL Ki/Bcl-2 Ki)

Here are 2 compounds together with their reported answers.
CN(C)CCOc1ccc(-c2ccc(Cl)cc2)c(CN2CCN(c3ccc(C(=O)NS(=O)(=O)c4ccc(NCC5CCOCC5)c([N+](=O)[O-])c4)c(Oc4ccc5[nH]ccc5c4)c3)CC2)c1    13575
CC1(C)CCC(CN2CCN(c3ccc(C(=O)NS(=O)(=O)c4ccc(NCC5CCN(C(=O)OCc6ccccc6)CC5)c([N+](=O)[O-])c4)c(Oc4ccc5[nH]ccc5c4)c3)CC2)=C(c2ccc(Cl)cc2)C1    >131.6

Let us move to another entry and its Binding selectivity ratio (Bcl-XL Ki/Bcl-2 Ki).
Query: What is its Binding selectivity ratio (Bcl-XL Ki/Bcl-2 Ki) for GST-Bcl-2? Entry: `CC1(C)CCC(CN2CCN(c3ccc(C(=O)NS(=O)(=O)c4ccc(NCCN5CCOCC5)c(S(=O)(=O)C(F)(F)F)c4)c(Oc4ccc5[nH]ccc5c4)c3)CC2)=C(c2ccc(Cl)cc2)C1`
Result: >418.7

The origin of these recorded values is patent US9125913B2.
